Assay: Biodistribution of the 99mTc(N) heterocomplexes in rats (organ uptake, heart accumulation, heart/lung and heart/liver ratios)
Format: in vivo, female Sprague-Dawley rats
Conditions: 20 min post injection
assay-readout: Biodistribution in rats: Adrenal glands (% dose/g)
# value in % dose/g; strip the unit string

CCOCCN1CC[P](CCCOC)(CCCOC)[99Tc+]2(#[N])([S]C(N(CCOCC)CCOCC)=[S]2)[P](CCCOC)(CCCOC)CC1 [[^99mTc(N) (PNP5) (DBODC)]^+]
3.00

For the molecule CCOCCN1CC[P](CCCOC)(CCCOC)[99Tc+]2(#[N])([S]C(N(CCOCC)C(C)C)=[S]2)[P](CCCOC)(CCCOC)CC1 [[^99mTc(N) (PNP5) (ISOET)]^+] , what Biodistribution in rats: Adrenal glands is on record?
2.70

---

Assay: Biodistribution of the 99mTc(N) heterocomplexes in rats (organ uptake, heart accumulation, heart/lung and heart/liver ratios)
Assay type: in vivo, female Sprague-Dawley rats
Settings: 20 min post injection
# Biodistribution in rats: Spleen per entry

For the compound CCOCCN1CC[P](CCCOC)(CCCOC)[99Tc+]2(#[N])([S]C(N(CCOCC)CCOCC)=[S]2)[P](CCCOC)(CCCOC)CC1 [[^99mTc(N) (PNP5) (DBODC)]^+] , what Biodistribution in rats: Spleen is on record?
1.41 % dose/g

For the compound CCOCCN(CCOCC)C1=[S][99Tc+]2(#[N])([S]1)[P](CCCOC)(CCCOC)CCN(CCOC)CC[P]2(CCCOC)CCCOC [[^99mTc(N) (PNP3) (DBODC)]^+] , what Biodistribution in rats: Spleen is on record?
0.92 ± 0.10 % ID/g

For the compound COCCC[P]1(CCCOC)CCN(CCOC)CC[P](CCCOC)(CCCOC)[99Tc+]12(#[N])[S]C(N(CCOC)CCOC)=[S]2 [[^99mTc(N) (PNP3) (DPODC)]^+] , what Biodistribution in rats: Spleen is on record?
0.38 ± 0.04 % ID/g

For the compound CCOCCN1CC[P](CCCOC)(CCCOC)[99Tc+]2(#[N])([S]C(N(CCOCC)C(C)C)=[S]2)[P](CCCOC)(CCCOC)CC1 [[^99mTc(N) (PNP5) (ISOET)]^+] , what Biodistribution in rats: Spleen is on record?
1.20 % dose/g

---

# Biodistribution in rats: Intestine per entry
Assay: Biodistribution of the 99mTc(N) heterocomplexes in rats (organ uptake, heart accumulation, heart/lung and heart/liver ratios)
Assay type: in vivo, female Sprague-Dawley rats
Details: 2 min post injection
Protocol: The biodistribution was measured by using female Sprague-Dawley rats (SD rats) weighing 200 g to 250 g. Each of the ^99mTc(N) heterocomplexes purified in the manner described above was diluted with phosphate buffer (0.1 M, pH=7.4) to obtain a final solution having an ethanol content of 10%. […] The blood was withdrawn from the heart through a syringe and counted. […] The organs were excised from the rats, washed with physiological saline, weighed, and counted in a NaI well counter. […]
# value in % dose/g; strip the unit string

CCOCCN1CC[P](CCCOC)(CCCOC)[99Tc+]2(#[N])([S]C(N(CCOCC)C(C)C)=[S]2)[P](CCCOC)(CCCOC)CC1 [[^99mTc(N) (PNP5) (ISOET)]^+]
3.68

Then this compound:
For the compound CCOCCN1CC[P](CCCOC)(CCCOC)[99Tc+]2(#[N])([S]C(N(CCOCC)CCOCC)=[S]2)[P](CCCOC)(CCCOC)CC1 [[^99mTc(N) (PNP5) (DBODC)]^+] , what Biodistribution in rats: Intestine is on record?
7.97
